Data credit: patent US9440987B2

# Tested On: human MCHR1 (Homo sapiens)
# Construct: expressed in transfected cells; host or cells: CHO cell clone 57 (membrane fraction)
# Sequence (Q99705 whole entry): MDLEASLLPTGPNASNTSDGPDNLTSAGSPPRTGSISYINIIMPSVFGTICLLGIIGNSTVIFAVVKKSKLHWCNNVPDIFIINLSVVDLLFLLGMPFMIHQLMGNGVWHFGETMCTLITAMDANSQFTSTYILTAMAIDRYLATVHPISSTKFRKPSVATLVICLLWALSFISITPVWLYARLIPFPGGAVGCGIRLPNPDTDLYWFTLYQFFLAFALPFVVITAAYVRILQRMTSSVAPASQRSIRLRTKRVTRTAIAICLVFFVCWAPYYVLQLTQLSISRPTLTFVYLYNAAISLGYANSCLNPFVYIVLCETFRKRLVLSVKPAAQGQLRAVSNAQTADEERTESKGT
# Test Protocol: Human MCH receptor 1 (MCHR1) binding inhibitory activity, [125I]-MCH(4-19) binding assay with MCHR1-expressing CHO cellular membrane fraction
# Experimental Context: test compound 0.1 μM, human MCHR1-expressing CHO cell membrane, read-out: Binding inhibition rate % (0.1 μM)
Property Measured: inhibition at 0.1 µM (%)
Give a bare numeral; the unit % is implied.

Here is how some molecules turned out for inhibition at 0.1 µM.
Cn1c(C2CC2)nc2ccc(-n3ccc4oc(-c5ccc(Cl)cc5)cc4c3=O)cc21 ... 79
Cn1c([C@H]2C[C@H]2C(C)(C)O)nc2ccc(-n3ccc4oc(-c5ccc(Cl)cc5)cc4c3=O)cc21 (racemic) ... 91
Cc1c(C2CC2)nc2ccc(-n3ccc4oc(-c5ccc(Cl)cc5)cc4c3=O)cn12 ... 100

## Task Write down the reported inhibition at 0.1 µM of Cc1c(C2CC2)nc2ccc(-n3ccc4oc(-c5ccc(Cl)cn5)cc4c3=O)cn12 , test system: human MCHR1 (Homo sapiens).
## Result 74
